Quick list: MIC per entry.
- Tested on: C. parapsilosis ATCC 22019
- EXPERIMENTAL_PROTOCOL: Anti-Fungal Activity Assay (broth microtiter MIC), C. parapsilosis
- Format: cell-based, Candida parapsilosis
- RUN_CONDITIONS: Lodderomyces parapsilosis, ATCC22019, 48 h, 3 replicates; MIC recorded at 48 h; read-out: MIC C. parapsilosis ATCC 22019

GIVEN_SMILES | MEASURED_TARGET | MIC
COCCO[C@@H](Cn1c(=O)n([C@@H]2CCCN(C)C2=O)c(=O)c2c(C)c(-n3nccn3)sc21)c1cc(F)ccc1OC | C. parapsilosis ATCC 22019 | 2.1 to 4 µg/mL
COc1ccc(F)cc1[C@H](Cn1c(=O)n([C@H]2CCCN(C)C2=O)c(=O)c2c(C)c(-n3nccn3)sc21)OC1CCOCC1 | C. parapsilosis ATCC 22019 | 0.25 to 1 µg/mL
COc1ccc(F)cc1[C@H](Cn1c(=O)n([C@@]2(C)CCC(=O)NC2)c(=O)c2c(C)c(-n3nccn3)sc21)OCCO | C. parapsilosis ATCC 22019 | 2.1 to 4 µg/mL

Ask: Could you share which MIC value was measured for COc1ccc(F)cc1[C@H](Cn1c(=O)n([C@H]2CCCN(C)C2=O)c(=O)c2c(C)c(-n3nccn3)sc21)OCCC#N ?
Result: 2.1 to 4 µg/mL

Ask: What would you report for COc1ccc(F)cc1[C@H](Cn1c(=O)n([C@H]2CCN(C)C2=O)c(=O)c2c(C)c(-n3nccn3)sc21)OCCC(=O)O ?
Result: 2.1 to 4 µg/mL

Ask: # repeat for COCCO[C@@H](Cn1c(=O)n([C@H]2CC(=O)N(C)C2)c(=O)c2c(C)c(-n3nccn3)sc21)c1cc(F)ccc1OC
Result: 2.1 to 4 µg/mL

====

The molecules below have reported pIC50 for Fungal ACC2 (UniProt Q00955).
pIC50: −log10 of the molar value.

Reference set (2 entries):
GIVEN_SMILES | DATA_VALUE
COc1ccc(F)cc1[C@H](Cn1c(=O)n([C@]2(C)CCCNC2=O)c(=O)c2c(C)c(-n3nccn3)sc21)OCCO | 8.70 to 9.15
COCCO[C@@H](Cn1c(=O)n([C@@H]2CCCN(C)C2=O)c(=O)c2c(C)c(-n3cccn3)sc21)c1cc(F)ccc1OC | 7.00 to 8.00

# input for lookup
Ask: What value of pIC50 has been reported for the following molecule? Cc1c(-n2nccn2)sc2c1c(=O)n([C@H]1CCN(C)C1=O)c(=O)n2C[C@H](O[C@H]1CC[C@@H](O)CC1)c1cc(F)ccc1O
Result: 8.70 to 9.15

====

- MEASURED_TARGET: Fungal ACC2 (UniProt Q00955)
- Sequence (Q00955 whole entry): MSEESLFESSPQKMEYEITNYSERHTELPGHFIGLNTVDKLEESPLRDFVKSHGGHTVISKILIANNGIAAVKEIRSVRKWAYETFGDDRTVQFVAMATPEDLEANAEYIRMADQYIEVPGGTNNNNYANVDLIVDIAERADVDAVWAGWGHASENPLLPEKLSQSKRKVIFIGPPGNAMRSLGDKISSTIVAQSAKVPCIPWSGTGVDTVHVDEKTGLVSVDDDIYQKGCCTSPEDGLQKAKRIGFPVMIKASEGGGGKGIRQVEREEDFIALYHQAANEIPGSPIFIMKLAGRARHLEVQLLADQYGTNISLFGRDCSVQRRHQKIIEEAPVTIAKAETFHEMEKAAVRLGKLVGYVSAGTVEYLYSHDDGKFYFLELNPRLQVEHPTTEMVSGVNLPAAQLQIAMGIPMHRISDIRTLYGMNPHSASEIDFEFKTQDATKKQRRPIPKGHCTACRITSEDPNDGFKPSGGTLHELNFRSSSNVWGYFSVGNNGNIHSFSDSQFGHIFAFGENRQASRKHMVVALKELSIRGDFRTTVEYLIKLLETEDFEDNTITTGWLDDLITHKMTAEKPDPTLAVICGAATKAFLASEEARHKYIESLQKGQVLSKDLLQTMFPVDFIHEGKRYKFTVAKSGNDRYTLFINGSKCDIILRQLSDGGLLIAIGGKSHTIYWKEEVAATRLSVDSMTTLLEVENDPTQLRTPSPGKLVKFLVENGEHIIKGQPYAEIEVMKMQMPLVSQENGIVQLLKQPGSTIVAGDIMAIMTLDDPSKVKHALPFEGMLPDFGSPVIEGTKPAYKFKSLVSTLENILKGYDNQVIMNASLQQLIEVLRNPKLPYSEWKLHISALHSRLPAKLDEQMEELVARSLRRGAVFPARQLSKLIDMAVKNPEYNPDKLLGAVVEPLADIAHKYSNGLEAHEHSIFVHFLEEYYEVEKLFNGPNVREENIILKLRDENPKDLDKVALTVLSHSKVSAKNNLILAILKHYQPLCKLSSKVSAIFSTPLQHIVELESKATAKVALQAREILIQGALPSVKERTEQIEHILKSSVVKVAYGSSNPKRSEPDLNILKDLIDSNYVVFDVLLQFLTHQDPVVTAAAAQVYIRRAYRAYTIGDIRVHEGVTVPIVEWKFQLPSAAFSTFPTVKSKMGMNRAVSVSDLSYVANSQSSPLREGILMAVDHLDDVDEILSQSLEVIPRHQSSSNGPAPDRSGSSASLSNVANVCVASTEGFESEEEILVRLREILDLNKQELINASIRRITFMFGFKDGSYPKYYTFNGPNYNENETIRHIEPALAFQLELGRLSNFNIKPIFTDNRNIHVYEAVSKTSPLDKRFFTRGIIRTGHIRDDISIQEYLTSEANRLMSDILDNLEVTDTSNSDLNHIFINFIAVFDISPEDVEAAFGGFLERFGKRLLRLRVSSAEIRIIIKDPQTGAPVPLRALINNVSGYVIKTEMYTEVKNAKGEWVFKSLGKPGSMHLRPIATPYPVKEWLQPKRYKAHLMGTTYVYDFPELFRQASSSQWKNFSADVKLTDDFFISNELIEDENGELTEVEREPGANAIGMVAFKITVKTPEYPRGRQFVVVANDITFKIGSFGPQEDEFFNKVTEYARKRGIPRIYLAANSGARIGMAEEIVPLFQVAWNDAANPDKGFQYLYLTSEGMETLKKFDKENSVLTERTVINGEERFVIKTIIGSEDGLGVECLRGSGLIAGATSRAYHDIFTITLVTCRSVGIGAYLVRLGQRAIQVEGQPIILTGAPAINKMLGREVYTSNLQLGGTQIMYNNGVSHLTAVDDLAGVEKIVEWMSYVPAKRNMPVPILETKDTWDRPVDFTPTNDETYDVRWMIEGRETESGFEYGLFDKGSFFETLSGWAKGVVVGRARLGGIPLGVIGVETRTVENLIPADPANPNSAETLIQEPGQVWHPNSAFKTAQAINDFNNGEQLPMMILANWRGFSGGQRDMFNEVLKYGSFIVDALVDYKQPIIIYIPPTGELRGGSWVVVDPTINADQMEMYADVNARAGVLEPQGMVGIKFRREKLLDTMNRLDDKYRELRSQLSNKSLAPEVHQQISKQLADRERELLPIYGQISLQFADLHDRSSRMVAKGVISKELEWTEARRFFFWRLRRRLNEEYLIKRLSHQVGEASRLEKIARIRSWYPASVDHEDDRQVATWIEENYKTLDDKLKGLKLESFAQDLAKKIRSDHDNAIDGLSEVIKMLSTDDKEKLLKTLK
pIC50: −log10 of the molar value.
// pIC50 lookup, one value per entry

Please review the following examples before continuing.
COMPOUND | DATA_VALUE
COc1ccc(F)cc1[C@H](Cn1c(=O)n(C2CCCN(C)C2=O)c(=O)c2c(C)c(-n3nccn3)sc21)OCCO (stereo partly drawn) | 8.00 to 8.70
COCCO[C@@H](Cn1c(=O)n([C@@H]2CCNC2=O)c(=O)c2c(C)c(-n3nccn3)sc21)c1cc(F)ccc1OC | 8.70 to 9.15

Ask: Form entry - test system: Fungal ACC2 (UniProt Q00955); read-out: pIC50; compound: COc1ccc(F)cc1[C@H](Cn1c(=O)n([C@H]2CCCNC2=O)c(=O)c2c(C)c(-n3nccn3)sc21)OCCC(=O)O
Result: 8.00 to 8.70

Ask: Another compound: COCCO[C@@H](Cn1c(=O)n(C2CCCN(C(C)C)C2=O)c(=O)c2c(C)c(-n3nccn3)sc21)c1cc(F)ccc1OC (stereo partly drawn)
Result: 8.00 to 8.70

Ask: Query COc1ccc(F)cc1[C@H](Cn1c(=O)n([C@]2(C)CC(=O)N(C)C2)c(=O)c2c(C)c(-n3nccn3)sc21)OCCO next
Result: 8.70 to 9.15

Ask: Would you mind doing COc1ccc(F)cc1[C@H](Cn1c(=O)n(C2CCNC2=O)c(=O)c2c(C)c(-n3nccn3)sc21)OCCO (stereo partly drawn) as well?
Result: 8.70 to 9.15

====

- MEASURED_TARGET: Human ACC2 (Homo sapiens)
- Sequence (O00763 whole entry): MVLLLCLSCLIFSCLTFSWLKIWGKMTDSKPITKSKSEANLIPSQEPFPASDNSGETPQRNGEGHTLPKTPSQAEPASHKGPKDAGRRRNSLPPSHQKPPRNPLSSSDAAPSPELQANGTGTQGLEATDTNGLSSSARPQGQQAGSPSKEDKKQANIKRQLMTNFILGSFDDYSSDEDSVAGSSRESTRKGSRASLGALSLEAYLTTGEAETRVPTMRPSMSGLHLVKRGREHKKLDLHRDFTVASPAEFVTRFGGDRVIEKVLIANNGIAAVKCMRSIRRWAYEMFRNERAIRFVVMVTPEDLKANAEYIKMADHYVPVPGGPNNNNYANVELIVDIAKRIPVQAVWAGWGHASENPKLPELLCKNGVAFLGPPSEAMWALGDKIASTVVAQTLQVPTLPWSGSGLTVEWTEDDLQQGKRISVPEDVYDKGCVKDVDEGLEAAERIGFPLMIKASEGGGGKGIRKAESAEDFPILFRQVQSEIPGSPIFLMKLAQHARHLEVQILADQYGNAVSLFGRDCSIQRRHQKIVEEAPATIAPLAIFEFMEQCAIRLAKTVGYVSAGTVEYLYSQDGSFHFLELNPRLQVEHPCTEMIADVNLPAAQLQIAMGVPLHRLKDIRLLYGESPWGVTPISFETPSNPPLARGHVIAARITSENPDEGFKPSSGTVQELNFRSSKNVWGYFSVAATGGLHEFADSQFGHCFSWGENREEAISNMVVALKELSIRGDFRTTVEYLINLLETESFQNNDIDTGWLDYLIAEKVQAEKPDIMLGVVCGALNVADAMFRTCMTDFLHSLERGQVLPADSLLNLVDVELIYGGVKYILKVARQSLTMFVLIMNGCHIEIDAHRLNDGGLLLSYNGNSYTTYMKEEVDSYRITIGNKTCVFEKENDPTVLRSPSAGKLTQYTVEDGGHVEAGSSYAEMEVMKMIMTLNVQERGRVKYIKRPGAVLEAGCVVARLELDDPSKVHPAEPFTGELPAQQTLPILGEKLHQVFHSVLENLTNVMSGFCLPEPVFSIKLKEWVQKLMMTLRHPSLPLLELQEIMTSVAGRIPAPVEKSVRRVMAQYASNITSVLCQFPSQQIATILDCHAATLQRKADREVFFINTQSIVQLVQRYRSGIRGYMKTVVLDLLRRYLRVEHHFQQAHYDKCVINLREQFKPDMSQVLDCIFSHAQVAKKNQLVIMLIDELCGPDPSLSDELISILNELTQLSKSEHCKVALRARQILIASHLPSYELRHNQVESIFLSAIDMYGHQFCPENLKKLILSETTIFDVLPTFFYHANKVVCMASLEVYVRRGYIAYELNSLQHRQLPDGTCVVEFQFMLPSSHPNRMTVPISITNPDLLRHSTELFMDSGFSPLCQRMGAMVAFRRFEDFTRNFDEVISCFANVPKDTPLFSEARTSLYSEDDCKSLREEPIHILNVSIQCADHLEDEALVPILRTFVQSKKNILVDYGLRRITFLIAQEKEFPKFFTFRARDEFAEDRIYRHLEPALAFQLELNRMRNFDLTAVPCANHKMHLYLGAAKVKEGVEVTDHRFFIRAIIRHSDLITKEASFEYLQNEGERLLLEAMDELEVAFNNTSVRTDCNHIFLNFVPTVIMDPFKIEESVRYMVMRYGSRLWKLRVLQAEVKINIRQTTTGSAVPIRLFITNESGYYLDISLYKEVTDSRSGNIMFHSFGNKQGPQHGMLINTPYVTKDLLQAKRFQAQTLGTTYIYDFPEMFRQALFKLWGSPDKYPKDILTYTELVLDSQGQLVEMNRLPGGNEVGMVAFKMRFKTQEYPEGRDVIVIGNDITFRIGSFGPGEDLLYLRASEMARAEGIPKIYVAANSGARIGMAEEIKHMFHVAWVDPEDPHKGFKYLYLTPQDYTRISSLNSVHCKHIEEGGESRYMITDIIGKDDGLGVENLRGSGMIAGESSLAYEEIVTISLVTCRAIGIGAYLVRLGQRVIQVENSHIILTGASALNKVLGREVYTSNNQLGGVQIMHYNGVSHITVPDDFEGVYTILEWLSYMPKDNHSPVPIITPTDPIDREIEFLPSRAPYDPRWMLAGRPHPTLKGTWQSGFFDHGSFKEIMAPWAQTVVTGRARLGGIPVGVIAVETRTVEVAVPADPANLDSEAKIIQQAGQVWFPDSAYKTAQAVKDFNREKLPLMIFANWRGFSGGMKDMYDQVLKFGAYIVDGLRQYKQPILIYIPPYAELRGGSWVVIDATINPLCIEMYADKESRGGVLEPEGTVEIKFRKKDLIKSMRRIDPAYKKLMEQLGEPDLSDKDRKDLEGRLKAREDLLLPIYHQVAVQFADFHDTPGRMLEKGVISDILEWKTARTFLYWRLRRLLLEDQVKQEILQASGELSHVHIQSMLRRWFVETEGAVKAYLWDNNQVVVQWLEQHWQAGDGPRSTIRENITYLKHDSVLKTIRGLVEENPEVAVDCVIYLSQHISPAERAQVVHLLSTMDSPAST
RECORDED_METRIC: IC50

COMPOUND | RECORDED_METRIC | DATA_VALUE
COCCO[C@@H](Cn1c(=O)n([C@@H]2CCN(C)C2=O)c(=O)c2c(C)c(-n3cccn3)sc21)c1cc(F)ccc1OC | IC50 | 10 to 100 nM
COCCO[C@@H](Cn1c(=O)n([C@]2(C)CCC(=O)N(C)C2)c(=O)c2c(C)c(-n3nccn3)sc21)c1cc(F)ccc1OC | IC50 | 10 to 100 nM
COc1ccc(F)cc1[C@H](Cn1c(=O)n([C@@H]2CCNC2=O)c(=O)c2c(C)c(-n3nccn3)sc21)OCCO | IC50 | 2 to 10 nM
COc1ccc(F)cc1[C@H](Cn1c(=O)n([C@@]2(C)CCCNC2=O)c(=O)c2c(C)c(-n3nccn3)sc21)OCCO | IC50 | 10 to 100 nM

# next compound below
Ask: Record request: IC50 value, item COc1ccc(F)cc1[C@H](Cn1c(=O)n([C@@H]2CCN(C)C2=O)c(=O)c2c(C)c(-n3cccn3)sc21)O[C@H]1CC[C@@H](O)CC1
Result: 2 to 10 nM

====

Listing of recorded MIC by entry.
- System: C. parapsilosis ATCC 22019
- EXPERIMENTAL_PROTOCOL: Anti-Fungal Activity Assay (broth microtiter MIC), C. parapsilosis
- Type: cell-based, Candida parapsilosis
- RUN_CONDITIONS: Lodderomyces parapsilosis, ATCC22019, 48 h, 3 replicates; MIC recorded at 48 h; read-out: MIC C. parapsilosis ATCC 22019

Sample answers from the record:
GIVEN_SMILES | MIC
COc1ccc(F)cc1[C@H](Cn1c(=O)n([C@@H]2CCN(C)C2=O)c(=O)c2c(C)c(-n3nccn3)sc21)O[C@H]1C[C@@H](O)C1 | 1.1 to 2 µg/mL
COc1ccc(F)cc1[C@H](Cn1c(=O)n([C@]2(C)CCC(=O)NC2)c(=O)c2c(C)c(-n3nccn3)sc21)OCCO | 2.1 to 4 µg/mL
COc1ccccc1[C@@H](O)Cn1c(=O)n([C@@H]2CCN(C)C2=O)c(=O)c2c(C)c(-n3nccn3)sc21 | 2.1 to 4 µg/mL
COc1ccc(F)cc1[C@H](Cn1c(=O)n([C@H]2CCN(C)C2=O)c(=O)c2c(C)c(-n3cccn3)sc21)OCCC(=O)O | 2.1 to 4 µg/mL
COc1ccc(F)cc1[C@H](Cn1c(=O)n([C@H]2CCN(C)C2=O)c(=O)c2c(C)c(-n3nccn3)sc21)OCCO | 2.1 to 4 µg/mL

Now, please, on to the next compound.
Ask: # query: MIC of entry COc1ccc(F)cc1C(=O)Cn1c(=O)n([C@H]2CCN(C)C2=O)c(=O)c2c(C)c(-n3nccn3)sc21
Result: 2.1 to 4 µg/mL

====

Here we list compounds with their recorded IC50 when tested on Fungal ACC2 (UniProt Q00955).

Ask: Quick check: IC50 of COc1ccc(F)cc1[C@H](Cn1c(=O)n([C@@H]2CCCN(C)C2=O)c(=O)c2c(C)c(-n3nccn3)sc21)OC1CCOCC1 [Compound I-40] ?
Result: 0.7 to 2 nM

====

- Test system: C. parapsilosis ATCC 22019
- EXPERIMENTAL_PROTOCOL: Anti-Fungal Activity Assay (broth microtiter MIC), C. parapsilosis
- Type: cell-based, Candida parapsilosis
- RUN_CONDITIONS: Lodderomyces parapsilosis, ATCC22019, 48 h, 3 replicates; MIC recorded at 48 h; read-out: MIC C. parapsilosis ATCC 22019
RECORDED_METRIC: MIC

GIVEN_SMILES | MIC
COc1ccc(F)cc1[C@H](Cn1c(=O)n([C@]2(C)CC(=O)N(C)C2)c(=O)c2c(C)c(-n3nccn3)sc21)OCCO | 2.1 to 4 µg/mL
COCCO[C@@H](Cn1c(=O)n([C@]2(C)CCC(=O)NC2)c(=O)c2c(C)c(-n3nccn3)sc21)c1cc(F)ccc1OC | 2.1 to 4 µg/mL
CCN1CC[C@H](n2c(=O)c3c(C)c(-n4nccn4)sc3n(C[C@H](OC3CCOCC3)c3cc(F)ccc3OC)c2=O)C1=O | 0.25 to 1 µg/mL
COc1ccc(F)cc1[C@H](Cn1c(=O)n([C@@H]2CCCNC2=O)c(=O)c2c(C)c(-n3nccn3)sc21)OCCC#N | 2.1 to 4 µg/mL

Switching to the query record.
Ask: Consider the compound COc1ccc(F)cc1[C@H](Cn1c(=O)n([C@@H]2CCCN(C)C2=O)c(=O)c2c(C)c(-c3ncco3)sc21)OCCO and give its measured MIC.
Result: 2.1 to 4 µg/mL
